# target: β3-AR (Homo sapiens)
# Sequence (P13945 whole entry): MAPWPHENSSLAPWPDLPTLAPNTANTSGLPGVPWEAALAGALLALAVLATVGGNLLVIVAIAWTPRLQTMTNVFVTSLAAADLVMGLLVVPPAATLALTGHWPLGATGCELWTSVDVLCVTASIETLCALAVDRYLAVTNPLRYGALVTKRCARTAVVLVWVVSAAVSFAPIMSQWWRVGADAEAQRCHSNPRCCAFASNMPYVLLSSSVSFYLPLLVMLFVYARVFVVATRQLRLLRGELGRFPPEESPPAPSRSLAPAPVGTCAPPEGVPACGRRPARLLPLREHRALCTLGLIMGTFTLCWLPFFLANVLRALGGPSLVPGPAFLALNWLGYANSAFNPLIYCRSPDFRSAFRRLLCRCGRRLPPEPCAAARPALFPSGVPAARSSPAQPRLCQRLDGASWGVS
# protocol: Adenylyl cyclase functional assay in CHO cells stably expressing human β3-AR
# Format: cell-based
# Set-up: expressed in transfected cells
# assay-setup: 40% human serum
assay-metric: pEC50
pEC50 is defined as minus the log10 of a concentration measured in mol/L.

The compound listed as O=C(Nc1ccc(C[C@@H]2CC[C@H]([C@H](O)c3ccccc3)N2)cc1)[C@@H]1CCc2nccc(=O)n21 shows pEC50 equal to 8.77

* * *

# protocol: Multiple rising dose Phase 1 PK, healthy subjects, day 14 (young males unless stated)
# Type: in vivo, human
# assay-setup: male, human, plasma, oral, 400 mg, 400 mg QD; read-out: t1/2 (converted)
assay-metric: half-life
The reply should consist of the numeric value with the unit placed after it.

# half-life of O=C(Nc1ccc(C[C@@H]2CC[C@H]([C@H](O)c3ccccc3)N2)cc1)[C@@H]1CCc2nccc(=O)n21 = 58.9 h

* * *

# protocol: Drug interaction: effect of conmed on vibegron PK
# Type: in vivo, human
# assay-setup: human, plasma, oral, 100 mg, 100 mg QD alone (tolterodine study)
assay-metric: AUC (ng·h/mL)
The answer is to be given in ng·h/mL; state only the numeric part.

In plain terms, O=C(Nc1ccc(C[C@@H]2CC[C@H]([C@H](O)c3ccccc3)N2)cc1)[C@@H]1CCc2nccc(=O)n21 has a documented AUC of 1660

* * *

# protocol: Single rising oral dose Phase 1 PK, healthy adults (young males unless stated)
# Format: in vivo, human
# assay-setup: male, human, plasma, oral, 200 mg, single 200 mg, Japanese
assay-metric: Cmax

response.value for O=C(Nc1ccc(C[C@@H]2CC[C@H]([C@H](O)c3ccccc3)N2)cc1)[C@@H]1CCc2nccc(=O)n21 (field: Cmax) = 516 ng/mL

* * *

# protocol: clinical
# assay-setup: human, in vivo, 100 mg
assay-metric: Cmax (ng/mL)
Numeric only. Scale: ng/mL

# molecule O=C(Nc1ccc(C[C@@H]2CC[C@H]([C@H](O)c3ccccc3)N2)cc1)[C@@H]1CCc2nccc(=O)n21 ; its Cmax = 107

* * *

# protocol: Effect of food on oral absorption
# Type: in vivo, human
# assay-setup: male, human, plasma, oral, 50 mg, single 50 mg, non-Japanese young males, fed
assay-metric: Cmax (ng/mL)
All answers are understood in ng/mL, so give the number only.

Record summary for O=C(Nc1ccc(C[C@@H]2CC[C@H]([C@H](O)c3ccccc3)N2)cc1)[C@@H]1CCc2nccc(=O)n21 [Vibegron] : reported Cmax = 7.6

* * *

# protocol: Single rising oral dose Phase 1 PK, healthy adults (young males unless stated)
# Type: in vivo, human
# assay-setup: male, human, plasma, oral, 50 mg, single 50 mg, fasted; read-out: AUC0-24
# Procedure: The steady state AUC geometric mean accumulation ratios were ˜2 in young male subjects and ˜2.8 in elderly subjects (male and female). All subjects were healthy adults. […] Systemic exposures were greater than dose proportional up to 600 mg. Although exposures were similar in middle-aged males when compared to young males, plasma concentrations were higher in elderly compared to middle-aged and young subjects. […]
assay-metric: AUC(0-t) (ng·h/mL)
Only the number, expressed in ng·h/mL, is required.

Measured AUC(0-t) of O=C(Nc1ccc(C[C@@H]2CC[C@H]([C@H](O)c3ccccc3)N2)cc1)[C@@H]1CCc2nccc(=O)n21 : 219
